# pEC50 per record follows
Molecular target: human Bisphosphoglycerate mutase (hBPGM) (Homo sapiens (Human))
Experiment: BPGM Phosphatase Assay
Details: Table 6 additional results; read-out: huBPGM: phosphatase Enzyme EC50
pEC50: −log10 of the molar value.
endpoint_label: pEC50

molecular_string | system_under_test | operator_symbol | endpoint_result
COCCOCCOCCOCCOCC(=O)NCc1nc(C)c(-c2csc(-c3ccc(C(=O)O)c(O)c3)n2)s1 | human Bisphosphoglycerate mutase (hBPGM) (Homo sapiens (Human)) | = | 5.49
Cc1nc(CNC2CCC2)sc1-c1csc(-c2cc(O)c(C(=O)O)cc2F)n1 | human Bisphosphoglycerate mutase (hBPGM) (Homo sapiens (Human)) | = | 7.52
Cc1nc(C)c(-c2nsc(-c3ccc(C(=O)O)c(O)c3)n2)s1 | human Bisphosphoglycerate mutase (hBPGM) (Homo sapiens (Human)) | = | 5.19
Cc1nc(COc2ccccn2)sc1-c1cccc(-c2ccc(C(=O)O)cc2)c1 | human Bisphosphoglycerate mutase (hBPGM) (Homo sapiens (Human)) | < | 4.60
Cc1nc(CNC(=O)C(C)(C)N(C)C)sc1-c1csc(-c2cc(O)c(C(=O)O)cc2F)n1 | human Bisphosphoglycerate mutase (hBPGM) (Homo sapiens (Human)) | = | 5.01
Cc1nc(CNC(=O)C(C)(C)C)sc1-c1cccc(-c2ccc(C(=O)O)c(O)c2)c1 | human Bisphosphoglycerate mutase (hBPGM) (Homo sapiens (Human)) | = | 5.96
Cc1nc(CNC(=O)c2cccnn2)sc1-c1cccc(-c2ccc(C(=O)O)c(O)c2)n1 | human Bisphosphoglycerate mutase (hBPGM) (Homo sapiens (Human)) | = | 6.55
Cc1nc(CNC(=O)C2CCCC2)sc1-c1csc(-c2cc(O)c(C(=O)O)cc2F)n1 | human Bisphosphoglycerate mutase (hBPGM) (Homo sapiens (Human)) | = | 6.89

====

pIC50: −log10 of the molar value.
Quick record: pIC50, hBPGM (Homo sapiens (Human), UniProt P07738).

compound | operator_symbol | pIC50
Cc1nc(COc2ncccn2)sc1-c1cccc(-c2ccc(C(=O)O)s2)n1 | = | 6.00
Cc1ccc(C#N)c(OCCn2cc(-c3cccc(-c4ccc(C(=O)O)c(O)c4)c3)c(C)n2)n1 [Example 330] | = | 5.18
O=C(O)c1ccc(-c2nc(-c3ccnc(CO)c3)cs2)cc1 | < | 4.60
Cc1nc(Cn2cccn2)sc1-c1cccc(-c2cc(O)c(C(=O)O)cc2F)c1 | = | 6.28

====

# EC50 per record follows
Molecular target: human Bisphosphoglycerate mutase (hBPGM) (Homo sapiens (Human), UniProt P07738)
Sequence (P07738 whole entry): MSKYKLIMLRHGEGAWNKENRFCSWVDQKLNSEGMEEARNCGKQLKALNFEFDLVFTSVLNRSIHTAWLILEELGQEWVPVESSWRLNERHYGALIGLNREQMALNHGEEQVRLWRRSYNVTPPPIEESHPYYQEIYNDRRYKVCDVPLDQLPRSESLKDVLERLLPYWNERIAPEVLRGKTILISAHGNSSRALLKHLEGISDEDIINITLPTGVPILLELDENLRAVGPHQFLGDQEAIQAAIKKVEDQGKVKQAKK
Experiment: BPGM Phosphatase Assay
Assay type: biochemical
Settings: Table 6 additional results; read-out: huBPGM: phosphatase Enzyme EC50
endpoint_label: EC50 (nM)

compound | system_under_test | measure_unit | operator_symbol | endpoint_result
Cc1nc(Cc2cccnc2)sc1-c1cccc(-c2ccc(C(=O)O)c(O)c2)c1 | human Bisphosphoglycerate mutase (hBPGM) (Homo sapiens (Human), UniProt P07738) | nM | = | 170
Cc1nc(C)c(-c2nc(-c3ccc(C(=O)O)c(O)c3)co2)s1 | human Bisphosphoglycerate mutase (hBPGM) (Homo sapiens (Human), UniProt P07738) | nM | > | 25000
Cc1nc(COc2ccccn2)sc1-c1cccc(-c2ccc(C(=O)O)c(O)c2)n1 | human Bisphosphoglycerate mutase (hBPGM) (Homo sapiens (Human), UniProt P07738) | nM | = | 79
Cc1nc(CNC(=O)c2ccn(C)n2)sc1-c1csc(-c2cc(O)c(C(=O)O)cc2F)n1 | human Bisphosphoglycerate mutase (hBPGM) (Homo sapiens (Human), UniProt P07738) | nM | = | 100
Cc1nc(CNC(=O)C2CC2)sc1-c1cccc(-c2cc(O)c(C(=O)O)cc2F)n1 | human Bisphosphoglycerate mutase (hBPGM) (Homo sapiens (Human), UniProt P07738) | nM | = | 360
Cc1nc(CNC(=O)c2ccccc2)sc1-c1csc(-c2cc(O)c(C(=O)O)cc2F)n1 | human Bisphosphoglycerate mutase (hBPGM) (Homo sapiens (Human), UniProt P07738) | nM | = | 100
Cc1nc(Cc2ccccc2)sc1-c1csc(-c2cc(O)c(C(=O)O)cc2F)n1 [Example 182] | human Bisphosphoglycerate mutase (hBPGM) (Homo sapiens (Human), UniProt P07738) | nM | = | 50
Cc1nc(CNC(=O)C(=O)N(C)C)sc1-c1csc(-c2cc(O)c(C(=O)O)cc2F)n1 | human Bisphosphoglycerate mutase (hBPGM) (Homo sapiens (Human), UniProt P07738) | nM | = | 980
COC(=O)NCc1nc(C)c(-c2csc(-c3cc(O)c(C(=O)O)cc3F)n2)s1 | human Bisphosphoglycerate mutase (hBPGM) (Homo sapiens (Human), UniProt P07738) | nM | = | 470
Cc1nc(Cc2ccccc2)sc1-c1csc(-c2ccc(C(=O)O)c(O)c2)n1 | human Bisphosphoglycerate mutase (hBPGM) (Homo sapiens (Human), UniProt P07738) | nM | = | 140
Cc1nc(C)c(-c2csc(-c3cc(O)c(C(=O)O)cc3F)c2)s1 | human Bisphosphoglycerate mutase (hBPGM) (Homo sapiens (Human), UniProt P07738) | nM | = | 220
Cc1nc(CNC(=O)c2ncccn2)sc1-c1csc(-c2cc(O)c(C(=O)O)cc2F)n1 | human Bisphosphoglycerate mutase (hBPGM) (Homo sapiens (Human), UniProt P07738) | nM | = | 120
Cc1nc(CNc2ccccn2)sc1-c1cccc(-c2ccc(C(=O)O)c(O)c2)c1 | human Bisphosphoglycerate mutase (hBPGM) (Homo sapiens (Human), UniProt P07738) | nM | = | 110
Cc1nc(Cc2cccnc2)sc1-c1cccc(-c2cc(O)c(C(=O)O)cc2F)n1 | human Bisphosphoglycerate mutase (hBPGM) (Homo sapiens (Human), UniProt P07738) | nM | = | 120
Cc1ccnc(OCc2nc(C)c(-c3csc(-c4cc(O)c(C(=O)O)cc4F)n3)s2)n1 | human Bisphosphoglycerate mutase (hBPGM) (Homo sapiens (Human), UniProt P07738) | nM | = | 80
Cc1nc(Cn2cccc(C#N)c2=O)sc1-c1cccc(-c2ccc(C(=O)O)c(O)c2)c1 | human Bisphosphoglycerate mutase (hBPGM) (Homo sapiens (Human), UniProt P07738) | nM | = | 420
Cc1nc(COc2ncccn2)sc1-c1cccc(-c2ccc(C(=O)O)s2)n1 | human Bisphosphoglycerate mutase (hBPGM) (Homo sapiens (Human), UniProt P07738) | nM | = | 12000
Cc1nc(CNC(=O)OC2CC2)sc1-c1csc(-c2cc(O)c(C(=O)O)cc2F)n1 | human Bisphosphoglycerate mutase (hBPGM) (Homo sapiens (Human), UniProt P07738) | nM | = | 55
COC(=O)NCc1nc(C)c(-c2csc(-c3cc(O)c(C(=O)O)cc3Cl)n2)s1 | human Bisphosphoglycerate mutase (hBPGM) (Homo sapiens (Human), UniProt P07738) | nM | = | 190
Cc1cccc(OCc2nc(C)c(-c3cccc(-c4ccc(C(=O)O)c(O)c4)c3)s2)n1 | human Bisphosphoglycerate mutase (hBPGM) (Homo sapiens (Human), UniProt P07738) | nM | = | 270
Cc1nc(CNC(=O)C2CC2)sc1-c1cccc(-c2ccc(C(=O)O)c(O)c2)c1 | human Bisphosphoglycerate mutase (hBPGM) (Homo sapiens (Human), UniProt P07738) | nM | = | 590
COC(=O)NCc1nc(C)c(-c2csc(-c3c(F)cc(C(=O)O)cc3F)n2)s1 | human Bisphosphoglycerate mutase (hBPGM) (Homo sapiens (Human), UniProt P07738) | nM | = | 7300
Cc1nc(CNC(=O)c2cccc(C#N)n2)sc1-c1csc(-c2cc(O)c(C(=O)O)cc2F)n1 | human Bisphosphoglycerate mutase (hBPGM) (Homo sapiens (Human), UniProt P07738) | nM | = | 20
Cc1nc(COc2ncccn2)sc1-c1cccc(-c2cc(O)c(C(=O)O)cc2F)n1 | human Bisphosphoglycerate mutase (hBPGM) (Homo sapiens (Human), UniProt P07738) | nM | = | 40
COC(=O)NC(C)c1nc(C)c(-c2csc(-c3cc(O)c(C(=O)O)cc3F)n2)s1 (stereo not drawn) | human Bisphosphoglycerate mutase (hBPGM) (Homo sapiens (Human), UniProt P07738) | nM | = | 160
Cc1nc(CNC2CCCOC2)sc1-c1cccc(-c2ccc(C(=O)O)cc2)c1 (stereo not drawn) | human Bisphosphoglycerate mutase (hBPGM) (Homo sapiens (Human), UniProt P07738) | nM | > | 25000
COC(=O)N[C@@H](C)c1nc(C)c(-c2csc(-c3cc(O)c(C(=O)O)cc3F)n2)s1 | human Bisphosphoglycerate mutase (hBPGM) (Homo sapiens (Human), UniProt P07738) | nM | = | 160
Cc1nc(CO)sc1-c1cccc(-c2cc(C(=O)O)cs2)n1 | human Bisphosphoglycerate mutase (hBPGM) (Homo sapiens (Human), UniProt P07738) | nM | > | 25000
Cc1ccc(OCc2nc(C)c(-c3cccc(-c4ccc(C(=O)O)c(O)c4)c3)s2)nc1 | human Bisphosphoglycerate mutase (hBPGM) (Homo sapiens (Human), UniProt P07738) | nM | = | 210
Cc1nc(COc2ncccn2)sc1-c1csc(-c2cc(O)c(C(=O)O)cc2F)n1 | human Bisphosphoglycerate mutase (hBPGM) (Homo sapiens (Human), UniProt P07738) | nM | = | 20
Cc1ccnc(NCc2nc(C)c(-c3cccc(-c4ccc(C(=O)O)c(O)c4)c3)s2)c1 | human Bisphosphoglycerate mutase (hBPGM) (Homo sapiens (Human), UniProt P07738) | nM | = | 60
Cc1nc(COC(N)=O)sc1-c1cccc(-c2ccc(C(=O)O)c(O)c2)c1 | human Bisphosphoglycerate mutase (hBPGM) (Homo sapiens (Human), UniProt P07738) | nM | = | 1000
Cc1nc(COc2ncccn2)sc1-c1cccc(-c2ccc(C(=O)O)cc2F)n1 | human Bisphosphoglycerate mutase (hBPGM) (Homo sapiens (Human), UniProt P07738) | nM | = | 1400
